Where do these numbers come from? They come from patent US11512079B2.

Collected MIC90 values appear next to each entry.
System: strains of C. neoformans and C. gattii
Assay: Activity vs Cryptococcus, summary over the strains tested
Type: cell-based, Cryptococcus neoformans and Cryptococcus gattii
Details: panel of 18 isolates of C. neoformans and C. gattii
I only need the number, in µg/mL, no unit after it.

Here is how some compounds turned out for MIC90.
* Nc1ncccc1-c1cc(Cc2ccc(COc3ccccn3)cc2)no1 [Compound 2] | 0.5
* Nc1ncccc1-c1cc(Cc2ccc(OCc3ccccc3)cc2)no1 [Example 2020] | 0.25

Now for a further compound.
Input: // lookup MIC90 for C[C@@H]1[C@H](O)[C@@H](C)/C=C/C=C/C=C/C=C/C=C/C=C/C=C/[C@H](O[C@@H]2O[C@H](C)[C@@H](O)[C@H](N)[C@@H]2O)C[C@@H]2O[C@](O)(C[C@@H](O)C[C@@H](O)[C@H](O)CC[C@@H](O)C[C@@H](O)CC(=O)O[C@H]1C)C[C@H](O)[C@H]2C(=O)O [AMB, amphotericin B, reference compound]
Output: 0.25

* * *

Collected minimal effective concentration values appear next to each entry.
Tested on: Aspergillus fumigatus MYA3626
Experiment: In vitro antifungal assay (Example IX), microdilution broth, MEC
Assay type: cell-based
Details: minimum effective concentration (shortening of hyphae), 35° C., 40-48 h, RPMI1640

* Nc1ncccc1-c1cc(Cc2ccc(OCc3ccccn3)cc2)no1 | 0.01 to 0.1 µg/mL
* Nc1ncccc1-c1cc(Cc2ccc(-c3ccc(F)cc3)nc2)no1 | > 1 µg/mL
* Cc1c(OCC(F)(F)F)ccnc1COc1ccc(Cc2cc(-c3cccnc3N)on2)cn1 | > 1 µg/mL
* Nc1ncccc1-c1cc(Cc2ccc(CC3=CCOC3)cc2)no1 | 0.01 to 0.1 µg/mL

Now for a further molecule.
Input: // lookup minimal effective concentration for Nc1ncccc1-c1cc(Cc2ccc(Nc3ccc(F)c(F)c3F)nc2)no1
Output: 0.1 to 1 µg/mL

* * *

Tested on: Rhizomucor pusillus 46342
Assay: In vitro antifungal assay (Example IX), microdilution broth, MEC
Assay type: cell-based
Settings: minimum effective concentration (shortening of hyphae), 35° C., 40-48 h, RPMI1640
PROPERTY LABEL: minimal effective concentration

Here is how some compounds turned out for minimal effective concentration.
* Nc1ncccc1-c1cc(Cc2ccc(COC3CCCCC3)cc2)no1 [compound 23] | 0.1 to 1 µg/mL
* Nc1ncccc1-c1cc(Cc2ccc(Nc3ccccc3)nc2)no1 [compound 58] | 0.1 to 1 µg/mL

Now for a further compound.
Input: // lookup minimal effective concentration for CC1=C(Oc2ccc(Cc3cc(-c4cccnc4N)on3)cn2)C(=O)C(C)O1 (stereo not drawn) [compound 71]
Output: > 1 µg/mL

* * *

System: Rhizomucor pusillus 46342
Assay: In vitro antifungal assay (Example IX), microdilution broth, MEC
Type: cell-based
Conditions: minimum effective concentration (shortening of hyphae), 35° C., 40-48 h, RPMI1640
PROPERTY LABEL: minimal effective concentration

• COc1ccc(F)cc1OCc1ccc(Cc2cc(-c3cccnc3N)on2)cc1 [compound 192] = > 1 µg/mL
• Nc1ncccc1-c1cc(Cc2ccc(Nc3ccccc3F)nc2)no1 [compound 60] = > 1 µg/mL
• Nc1ncccc1-c1cc(Cc2ccc(OCc3cccc(Br)n3)nc2)no1 [compound 223] = > 1 µg/mL
• Nc1ncccc1-c1cc(Cc2ccc(CNc3cccc(F)n3)cc2)no1 [compound 31] = 0.1 to 1 µg/mL
• Nc1ncccc1-c1cc(Cc2ccc(Cn3cnnc3)cc2)no1 [compound 200] = > 1 µg/mL
• Nc1ncccc1-c1cc(Cc2ccc(Cn3cc(CO)cn3)cc2)no1 [compound 102] = > 1 µg/mL
• COc1cc(COc2ccc(Cc3cc(-c4cccnc4N)on3)cn2)ccn1 [Example 165] = 0.1 to 1 µg/mL
• N#Cc1ccc(COc2ccc(Cc3cc(-c4cccnc4N)on3)cn2)cc1 [compound 76] = 0.1 to 1 µg/mL

Input: // lookup minimal effective concentration for Nc1ncccc1-c1cc(Cc2ccc(Oc3cccc(Cl)n3)cc2)no1 [compound 234]
Output: 0.1 to 1 µg/mL

Input: What do we get for Nc1ncccc1-c1cc(Cc2ccc(Cc3ccnc(F)c3)cc2)no1 [compound 19] ?
Output: 0.1 to 1 µg/mL

Input: What do we get for N#Cc1cccc(COc2ccc(Cc3cc(-c4cccnc4N)on3)cc2)n1 [compound 118] ?
Output: > 1 µg/mL

Input: What do we get for Nc1ncccc1-c1cc(Cc2ccc(OCc3cccc(Cl)c3)nc2)no1 [compound 85] ?
Output: 0.1 to 1 µg/mL

* * *

System: Aspergillus fumigatus MYA3626
Experiment: In vitro antifungal assay (Example IX), microdilution broth, MEC
Format: cell-based
Conditions: minimum effective concentration (shortening of hyphae), 35° C., 40-48 h, RPMI1640
Description: Measurement of antifungal activity: […] Candida albicans 90028, Aspergillus fumigatus MYA3626, Rhizomucor pusillus 46342 and Cryptococcus neoformans […] strains were obtained from American Type Culture Collection (ATCC). […] (A. fumigatus) and 35° C. (R. pusillus). […] The resulting spore suspension was counted and diluted into RPMI1640 medium to adjust to a final suspension of 1-2×10^4 spores/mL. […] This was validated by thorough mixing and reading at 600 nm on a microplate reader. […]
PROPERTY LABEL: minimal effective concentration

* Nc1ncccc1-c1cc(Cc2ccc(OCc3ccccc3F)cc2)no1 [Example 141] | 0.01 to 0.1 µg/mL
* Nc1ncccc1-c1cc(Cc2ccc(OCc3ccncc3Cl)nc2)no1 [compound 218] | 0.1 to 1 µg/mL
* Nc1ncccc1-c1cc(Cc2ccc(OCc3ccnc(Cl)c3)nc2)no1 [compound 83] | 0.01 to 0.1 µg/mL
* Cc1cnc(COc2ccc(Cc3cc(-c4cccnc4N)on3)cc2)nc1 [compound 29] | 0.1 to 1 µg/mL

Input: // lookup minimal effective concentration for Nc1ncccc1-c1cc(Cc2cccc(OCc3ccccc3F)n2)no1 [compound 90]
Output: > 1 µg/mL

Input: What do we get for Cn1ccc(COc2ccc(Cc3cc(-c4cccnc4N)on3)cn2)n1 [compound 45] ?
Output: 0.1 to 1 µg/mL

Input: What do we get for COc1cc(COc2ccc(Cc3cc(-c4cccnc4N)on3)cn2)c(F)cn1 [compound 207] ?
Output: 0.01 to 0.1 µg/mL

Input: What do we get for c1ccc(OCc2ccc(Cn3cc(-c4cccnc4)cn3)cc2)nc1 [compound 62] ?
Output: 0.01 to 0.1 µg/mL

Input: What do we get for CC(Oc1ccc(Cc2cc(-c3cccnc3N)on2)cn1)c1ccccc1F (centres unmarked) [compound 56] ?
Output: 0.1 to 1 µg/mL

Input: What do we get for Nc1ncccc1-c1cc(Cc2ccc(Cc3cccnc3F)cc2)no1 [compound 69] ?
Output: 0.01 to 0.1 µg/mL

Input: What do we get for N#Cc1ccc(COc2ccc(Cc3cc(-c4cccnc4N)on3)cc2)cc1 [compound 113] ?
Output: 0.1 to 1 µg/mL

* * *

Tested on: Aspergillus fumigatus MYA3626
Assay: In vitro antifungal assay (Example IX), microdilution broth, MEC
Format: cell-based
Conditions: minimum effective concentration (shortening of hyphae), 35° C., 40-48 h, RPMI1640
PROPERTY LABEL: minimal effective concentration

Here is how some compounds turned out for minimal effective concentration.
• c1ccc(COc2ccc(Cn3cc(-c4cccnc4)cn3)cn2)cc1 = 0.01 to 0.1 µg/mL
• Nc1ncccc1-c1cc(Cc2ccc(OCc3ncco3)nc2)no1 = 0.1 to 1 µg/mL
• CS(=O)(=O)Nc1cccc(Cc2ccc(Cc3cc(-c4cccnc4N)on3)cc2)c1 = > 1 µg/mL

Input: // lookup minimal effective concentration for Nc1ncccc1-c1cc(Cc2ccc(Oc3nc(Cl)cs3)cc2)no1
Output: 0.1 to 1 µg/mL

Input: What do we get for Nc1ncccc1-c1cc(Cc2cnc(OCc3ccccc3)c(F)c2)no1 ?
Output: 0.01 to 0.1 µg/mL

Input: What do we get for Nc1ncccc1-c1cc(Cc2cnc(Nc3c(F)cccc3F)c(F)c2)no1 ?
Output: 0.1 to 1 µg/mL

Input: What do we get for Nc1ncccc1-c1cc(Cc2ccc(CNc3cc(F)cc(F)c3)cc2)no1 ?
Output: 0.01 to 0.1 µg/mL

Input: What do we get for Nc1ncccc1-c1cc(Cc2ccc(OCc3ccccc3C(F)(F)F)nc2)no1 ?
Output: 0.1 to 1 µg/mL

* * *

System: Aspergillus fumigatus MYA3626
Test: In vitro antifungal assay (Example IX), microdilution broth, MEC
Type: cell-based
Conditions: minimum effective concentration (shortening of hyphae), 35° C., 40-48 h, RPMI1640
PROPERTY LABEL: minimal effective concentration

Here is how some compounds turned out for minimal effective concentration.
• Nc1ncccc1-c1cc(Cc2ccc(OCc3csc(Cl)n3)nc2)no1 = 0.1 to 1 µg/mL
• Nc1ncccc1-c1cc(Cc2ccc(OCc3ccn4ccnc4c3)nc2)no1 = > 1 µg/mL
• Nc1ncccc1-c1cc(Cc2ccc(OCc3ccnc(F)c3)nc2)no1 = 0.01 to 0.1 µg/mL
• Nc1ncccc1-c1cc(Cc2ccc(CCc3ccccc3)cc2)no1 = 0.01 to 0.1 µg/mL
• Nc1ncccc1-c1cc(Cc2ccc(NCc3ccc(F)cc3)nc2)no1 = 0.01 to 0.1 µg/mL
• Nc1ncccc1-c1cc(Cc2ccc(Cn3ncc4ccccc43)cc2)no1 = 0.1 to 1 µg/mL

Now for a further compound.
Input: // lookup minimal effective concentration for Nc1ncccc1-c1cc(Cc2ccc(COc3cc(F)cc(F)c3F)cc2)no1
Output: 0.1 to 1 µg/mL
